- test: soluble on expression in E. coli; label from the status in PepcDB or PDB records

item.sequence | soluble on expression in E. coli
LFDRVLVAYDFSKWADRALEYAKFVVKKTGGELHIIHVSEDGDKTADLRVMEEVIGAEGIEVHVHIESGTPHKAILAKREEINATTIFMGSRGAGSVMTMILGSTSESVIRRSPVPVFVCKRGDDE | not soluble
MGSDKIHHHHHHMDIAMVYSDRLLSPQIPPSRKLRVLKEVEIRLIEGEEQEVEELIMQIHSEEYFSRIRSHPFFENAVENVKCILTGLKALKDYDAVIVPVTTAGHLAEQSRMRGYCLLNGLAIAVKAAESYGRIAVIETDAHHGKASIVSEERATFFCIGRRECEISEDLRCVLGRRMGKDYVKSFEELVERVKEYDPNLVIWYLGLDLDSREYAEMPFGREEWEKLVKNFMKMAEGRKSLIMLALGLRDDVLKDIVGLFAGW | not soluble
MKGLILAAGRGTRLRPLTHTRPKPAIRVAGRPIIHYAVENLLEAGVREIGVVVSPETERDLKVALEGYPVRYVLQEEPQGLAHAVDVARGFLGESPFVLYLGDNLFQKGIRRFLEAFKPGVSAVIALVRVEDPRQFGVAVLEGNRVVRLLEKPKDPPSDLAVAGVYVFSPEVLEVVRGLKPSARGEYEITDAIQGLIDRGKTVVGVEVEGWWKDTGRHQDLLDANRLLLEELTPKVEGDVVESQLTGRVVVEKGAKVVRSTVIGPAHIGAGAVVEEAFVGPFTSVGPRARVVRSEVEYSLLEEEAVVEEVRLRLQECILGVRAEVKSRDGLPRAHRLILGDLSQVELA | soluble
MSKDAVSILFLGIDDNEGRRKNGQTTEHSRTDSMILSTFSPEKRQIRLLSIPRDTISYIPKVGYYDKITHAHAYGGPVAAMDSVEATLNVPVDYYVRVNMDAFVEAVDELGGIYYDVPYDLNEPNTDDSGRIKIKKGYQKLNGDEALAVARTRHHDSDLKRGERQMDLIKLLFQKAKSLDSYDKLDDLVQIVGKNAKHNLTSSEIKSLASMYLSDDIEFKKSQLKGKDDYLQNIYYYNPSVSSIMKYSNILRSDLGLSKITDKDEFLDQRVIKHYGTLIPLTPLDQSLLKNNQKDSSSSDDNNDDSTNSDNNNNIQSSEENSSNSNEGIDQSSQGSTQSDNYNQTNSSNSFNNNQDQMNQIYLEHHHHHH | soluble
MSLARSRARVETIAELERTNAALQQALDENAALHAQLLVQAREAGVADERRRLAAEIHDTLAQGLTGIIAQLQVVAAAPDPALGREHLDRALALARHSLGEARRSVHNLSPVALAEDGLPDALKKTVTEWGARTGVQARFTVTGTAEHLHDEVAATLLRIAQEALSNTARHAAADRVGVTLSYMGDEVTLDIRDDGRGFDPLTARECGPGGGFGLDGMRARAERIAGSLTVEAEPGHGTAVSARVPLVRHDREGHHHHHH | soluble
MGSDKIHHHHHHMFVSPMLLHSIKEPFNDENYITELKFDGIRLILSKFDNQIKLYTRHNNEVTSKFPELMDLDIPDGTVLDGEVIVAASGGAPDFEAVMERFMSKKSAHNIVYCVFDVIYKDGQSIAAKPLTERKTVLNSLELDHPNVFVIEGTQGNGLAYFNLAKEKNLEGIVIKKANSPYEINKRSHNWLKVINYDYTEVLITGYTKKDIKFLLSYPDGTSAGFMEFMPHAERTKFHSMKQVKSESDEYVFIEPILCNVKHRFKTKHGKLRIPSFESWRV | not soluble
MLRSLSTISKSTVRCMSLTSKMAAEQPSKQEVDDLFAEKPQHHNPEQRRHAYSVNKVELVGGVALDPLYKTGRNGKPYLIFNIITNSYFKQQDGTTLDQTERHAVSVFGKQAEILSKTIKKGSRLMVQGRLHYSGGQKDEQGNRTQRNTYIIAQTVQPLARAARENPDQH | not soluble
MALMTMVQALNRALDEEMAKDPRVVVLGEDVGKRGGVFLVTEGLLQKYGPDRVMDTPLSEAAIVGAALGMAAHGLRPVAEIQFADYIFPGFDQLVSQVAKLRYRSGGQFTAPLVVRMPSGGGVRGGHHHSQSPEAHFVHTAGLKVVAVSTPYDAKGLLKAAIRDEDPVVFLEPKRLYRSVKEEVPEEDYTLPIGKAALRREGKDLTLIGYGTVMPEVLQAAAELAKAGVSAEVLDLRTLMPWDYEAVMNSVAKTGRVVLVSDAPRHASFVSEVAATIAEDLLDMLLAPPIRVTGFDTPYPYAQDKLYLPTVTRILNAAKRALDY | soluble
VIIDTSALLAYFDAAEPDHAAVSECIDSSADALVVSPYVVAELDYLVATRVGVDAELAVLRELAGGAWELANCGAAEIEQAARIVTKYQDQRIGIADAANVVLADRYRTRTILTLDRRHFSALRPIGGGRFTVIP | not soluble
THSEEEIKIIASESQKGGVLDEFETEIIRNAVDFSDTVAKEIMTPRKDMICLNKQKSYEENMQIICEHKHTRFPYIDGSKDTILGMIHIRDIIQNELNHKSQNLDTFVKPLILVPENISISKVLVMMNKERSHTALVVDEYGGTAGILTMEDIMEEIIGEIKSEHEEDSYKKLA | soluble
MVYFAYGSNLCLEQMKKRCPEAIPMISVHLDDYKLVYNKYADIIPCEGEKVYGAIYEISLNDLKNLDKYEEYSDLYEKIDLIVQDINGISYEAFAYVMNEKGDKTPDKRYLDIINKGYEDWGIIY | not soluble
MGSDKIHHHHHHMKISLAPISYCWSKSDVEHFYQQVALSNIDTVYLGETVCSRRRELKFNNYLDLANMLKSHGKHVVLSTMALIEAQSELNELKRAIDNGDFSIEANDMAAVHYAHQAKVPFVCGPTINNYNRTSLNLLHQKGMYRFVMPCELSQQWLNTVINQGDKPAFEIEVLGHGYLPLAHSARCFTAKHYQLPKDKCQTICQRHSKGLLAQTQESQPLLRLNGIQTQSAAQVNLINQIPQMIDMGIDYWRISPNKLTDVAMGSELAHVLAQITEDPFNSKALITKQFNDNKQASIINHHCNGYWLGLPGMDYSLEPNTPAG | not soluble
